- Assay Overview: Plasma level in dogs
- Type: in vivo, Beagle dogs
- Test Settings: dog, plasma, 1 hr after oral 25 mg/kg, nd: nondetective
Measurement Name: concentration at 1 h (ng/mL)
Write the answer as a number in ng/mL, unit excluded.

Request: // returns reported concentration at 1 h for input `CCn1cc(C(=O)O)c(=O)c2cc(F)c(N3CCNCC3)nc21`
Result: 2400

---

- Assay Overview: Plasma level in dogs
- Format: in vivo, Beagle dogs
- Test Settings: dog, plasma, 0.5 hr after oral 25 mg/kg, nd: nondetective
Measurement Name: concentration at 0.5 h (ng/mL)
Numbers only here, please. The scale is ng/mL.

Request: Please give the measured concentration at 0.5 h for this molecule: `CCn1cc(C(=O)O)c(=O)c2cc(F)c(N3CCNCC3)nc21`
Result: 600
